assayed_target: T1, BoNT/C1 holotoxin (Clostridium botulinum, UniProt P18640 2-1291)
T1 sequence: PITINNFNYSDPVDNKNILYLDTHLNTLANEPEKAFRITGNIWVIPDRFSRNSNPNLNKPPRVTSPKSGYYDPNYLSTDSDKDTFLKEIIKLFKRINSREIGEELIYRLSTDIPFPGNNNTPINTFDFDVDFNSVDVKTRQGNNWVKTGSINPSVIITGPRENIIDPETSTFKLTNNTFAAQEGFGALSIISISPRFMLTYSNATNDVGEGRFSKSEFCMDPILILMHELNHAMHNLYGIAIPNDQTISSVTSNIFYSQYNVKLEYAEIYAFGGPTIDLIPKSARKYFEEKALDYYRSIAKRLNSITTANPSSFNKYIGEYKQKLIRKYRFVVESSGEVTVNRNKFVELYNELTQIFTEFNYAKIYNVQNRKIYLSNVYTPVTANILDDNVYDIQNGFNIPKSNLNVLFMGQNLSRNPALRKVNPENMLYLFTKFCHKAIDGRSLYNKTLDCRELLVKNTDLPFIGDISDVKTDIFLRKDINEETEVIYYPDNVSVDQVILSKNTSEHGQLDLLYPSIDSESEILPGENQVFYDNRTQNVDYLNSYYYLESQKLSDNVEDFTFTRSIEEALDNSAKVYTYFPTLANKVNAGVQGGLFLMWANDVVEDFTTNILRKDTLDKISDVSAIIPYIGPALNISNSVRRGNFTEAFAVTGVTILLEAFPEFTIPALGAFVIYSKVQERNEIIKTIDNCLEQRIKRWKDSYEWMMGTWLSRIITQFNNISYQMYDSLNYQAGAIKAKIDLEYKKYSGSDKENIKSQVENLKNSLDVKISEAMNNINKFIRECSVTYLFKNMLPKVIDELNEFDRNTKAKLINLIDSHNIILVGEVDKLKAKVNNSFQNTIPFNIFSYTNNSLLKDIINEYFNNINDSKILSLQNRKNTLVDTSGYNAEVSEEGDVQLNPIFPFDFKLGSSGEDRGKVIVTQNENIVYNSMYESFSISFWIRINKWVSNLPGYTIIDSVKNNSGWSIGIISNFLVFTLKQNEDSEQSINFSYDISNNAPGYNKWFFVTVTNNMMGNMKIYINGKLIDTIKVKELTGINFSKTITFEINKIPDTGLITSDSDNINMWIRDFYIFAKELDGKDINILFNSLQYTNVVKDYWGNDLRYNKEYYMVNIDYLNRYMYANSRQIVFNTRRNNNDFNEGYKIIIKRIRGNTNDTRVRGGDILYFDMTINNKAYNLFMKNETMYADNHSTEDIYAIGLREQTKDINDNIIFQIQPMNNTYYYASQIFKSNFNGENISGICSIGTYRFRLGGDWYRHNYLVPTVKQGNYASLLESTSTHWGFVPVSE
method_description: yeast scFv FACS
outcome_measure: Kd

[ask] Please report Kd for the following binder: 1C8 scFv (scFv, V domains shown, human) VH: QVQLQQSGAEVKKPGASVKVSCKASAFTFNSNYIHWVRLAPGQGPEWMGIINPDGGRTTYAQKFQGRITMTTDTSTYAVYMELSSLRSEDTAVYYCARGATNIPYGMSVWGQGTTVTVSS VL: DIVMTQSPSSLSASVGDRVTITCRASQAIRNDLGWYQQEPGKAPKLLIYAASTLQSGVPSRFSGRGSGTDFTLTISSLQPEDFATYYCLQHNSYPLTFGGGTKVDIK
[reply] 42 nM

[ask] Using known records, supply Kd for 4C3 scFv (scFv, V domains shown, human) VH: EVQLVQSGAEVKKPGSSVKVSCKASGNSLNNYAITWVRQAPGQGLEWMGGINPLFGTANYAQKFQDRVTMTADESTNIAYLDLSSLTTADTAVYFCAVGAFTNYPFWGQGTTVTVSS VL: SGLTQDPAVSEALGQTVRITCQGDSLRSYYASWYQQKPGQAPLLVIYAGNNRPSGIPDRFSGSSSGNTASLTITGARAEDEADYYCNSRDSSGNYLFGAGTKLTVL
[reply] 4.7 nM

[ask] Return Kd (reported value) for this binder: 87C78 scFv (scFv, V domains shown, human) VH: QVQLQESGGGVVQPGKSLRLSCVTSTFTLGTYAMHWVRQAPGKGLQWVAVISYDGRYADYADSVKGRFNISRDNSKNTLYLQMHSLTTEDTALYYCAKAIKAFRPVPPSFHMDVWGIGTTVTVSS VL: DIVMTQSPSSLSASVGDRVTITCRASQGISSYLAWYQQKPGKAPQLLIYKASILKSGVPSRFSGSGSGTEFTLTISSLQPEDFATYFCQQTFDTPLTFGQGTKVEIK
[reply] 1 nM

[ask] Return Kd for the following binder: 1C1.1 scFv (scFv, V domains shown, human) VH: QVQLQESGSGLVKPSQSLSLTCAVSGGSISSGDYSWSWIRQPPGEGLEWIGYIFPRGSTYYNPSLRSRVTMSVDRSKNQFSLSLNSVTAADTAVYYCARTKMGAAEGVFDYWGQGTLVTVSS VL: EIVLTQSPSSLPASVGDRVTITCRASQSIGTYLNWYQHKPGSAPKLLINAASSLQSGVPSRFSGSGSGTDFTLTISSLQPDDFATYYCQQYNSYTWTFGQGTKVGIK
[reply] 0.15 nM

[ask] Fill in reported Kd for this entry: 4C5 scFv (scFv, V domains shown, human) VH: QVQLVQSGADVKKPGASVRVSCKASGYTISTYAMSWVRQAPGQGLEWMGWISGYNGNTNYAQEFQGRVTMTRDTSTNTAYMELRSLRSDDTAFYYCARVKLTTMVRGGPFDYWGQGTLVTVSS VL: EIVLTQSPSSLSATVGDRVTITCRASQGIRNDLVWYQQKPGKAPKRLTYAASSLLSGVPSRFSGSGSGTDFTLTISSLQPEDFATYYCQQYNSYPPTFGGGTKLEIK
[reply] 0.143 nM

[ask] Please indicate Kd recorded for 1C1 scFv (scFv, V domains shown, human) VH: QVQLQESGSGLVKPSQSLSLTCAVSGGSISSGDYSWSWIRQPPGEGLEWIGYIFPRGSTYYNPSLRSRVTMSVDRSKNQFSLSLNSVTAADTAVYYCARTKMGAAEGVFDYWGQGTLVTVSS VL: DIVMTQSPSTLSASVGDRVTITCRASQSVSTWLAWYQQKPGKAPNLLISEASNLESGVPSRFSGSGSGTEFTLTISSLQPDDFAIYYCQQYNSYVWTFGQGTKLEIK
[reply] 0.5 nM
